subject.of.test: purified HLA DRB1*0101 (Homo sapiens, UniProt P01903+P01911, A100R/D57E/F55L/F60I/F76Y/I96L/L162R/M171V/P40L/Q125E/R42F/V115G/Y59C)
Construct: purified from EBV transformed homozygous cell lines or single MHC allele transfected 721.221, C1R, or fibroblast lines; made in house
test.description: HLA-DR radioligand binding inhibition assay, DRB1*0101
condition.label: IC50 nM purified HLA DRB1 *0101, purified HLA DRB1*0101
measurement.name: IC50 (nM)

- molecule: "CC(C)C[C@H](NC(=O)[C@H](C)NC(=O)[C@H](Cc1ccc(O)cc1)NC(=O)[C@H](CC(N)=O)NC(=O)[C@H](CC(=O)O)NC(=O)[C@H](CCC(=O)O)NC(=O)[C@H](Cc1ccccc1)NC(=O)[C@H](CC(C)C)NC(=O)[C@H](CCC(N)=O)NC(=O)[C@@H](NC(=O)CN)[C@@H](C)O)C(=O)N[C@@H](C)C(=O)N[C@H](C(=O)N[C@@H](CC(C)C)C(=O)N[C@@H](CC(=O)O)C(=O)O)C(C)C [Peptide 9019.0001]"
  measurement.name: "IC50"
  reported.value: 210
- molecule: "CC[C@H](C)[C@H](NC(=O)CNC(=O)[C@@H](NC(=O)[C@@H](NC(=O)[C@H](C)NC(=O)[C@H](CO)NC(=O)[C@@H](NC(=O)[C@@H](NC(=O)[C@H](CO)NC(=O)[C@@H](NC(=O)[C@H](CC(C)C)NC(=O)[C@@H]1CCCN1C(=O)[C@H](CO)NC(=O)[C@H](C)N)[C@@H](C)O)[C@@H](C)CC)[C@@H](C)CC)C(C)C)C(C)C)C(=O)N[C@@H](CC(C)C)C(=O)O [Peptide 9019.0066]"
  measurement.name: "IC50"
  reported.value: 15
- molecule: "CC[C@H](C)[C@H](NC(=O)CNC(=O)[C@H](CS)NC(=O)[C@@H](N)C(C)C)C(=O)N[C@@H](CCC(N)=O)C(=O)N[C@@H](CC(N)=O)C(=O)N[C@@H](CO)C(=O)N[C@H](C(=O)N[C@@H](CO)C(=O)N[C@@H](C)C(=O)N[C@@H](CC(N)=O)C(=O)N[C@@H](CCCNC(=N)N)C(=O)N[C@@H](CO)C(=O)N[C@@H](CC(=O)O)C(=O)N1CCC[C@H]1C(=O)O)C(C)C [Peptide 9019.0135]"
  measurement.name: "IC50"
  reported.value: 44
- molecule: "CC(C)C[C@H](NC(=O)[C@H](C)NC(=O)[C@H](CC(C)C)NC(=O)[C@@H](N)CC(C)C)C(=O)N[C@@H](CC(C)C)C(=O)N1CCC[C@H]1C(=O)N1CCC[C@H]1C(=O)NCC(=O)N[C@@H](C)C(=O)N[C@@H](C)C(=O)N[C@@H](CO)C(=O)N[C@H](C(=O)N[C@@H](CCC(N)=O)C(=O)N[C@H](C(=O)N[C@@H](CS)C(=O)O)C(C)C)[C@@H](C)O [Peptide 1622.02]"
  measurement.name: "IC50"
  reported.value: 17
- molecule: "CC[C@H](C)[C@H](N)C(=O)N[C@@H](CC(N)=O)C(=O)NCC(=O)N[C@H](C(=O)N1CCC[C@H]1C(=O)N[C@@H](CCC(N)=O)C(=O)N[C@@H](CCC(N)=O)C(=O)N[C@@H](Cc1c[nH]cn1)C(=O)N[C@H](C(=O)N[C@@H](CCC(N)=O)C(=O)N[C@H](C(=O)N[C@@H](CC(C)C)C(=O)N[C@@H](Cc1ccccc1)C(=O)N[C@H](C(=O)N[C@@H](C)C(=O)O)[C@@H](C)CC)C(C)C)[C@@H](C)O)[C@@H](C)CC [Peptide 9019.0139]"
  measurement.name: "IC50"
  reported.value: 682

====

subject.of.test: purified HLA DRB1*0802 (Homo sapiens, UniProt P01903+P01911, A100R/A103L/A169T/F76Y/H45Y/I96F/K41T/L162R/M171V/P40S/Q125H/Q178H/Q39Y/Q99D/R218S/R42G/S66Y/V115G/W38E)
Construct: purified from EBV transformed homozygous cell lines or single MHC allele transfected 721.221, C1R, or fibroblast lines; made in house
test.description: HLA-DR radioligand binding inhibition assay, DRB1*0802
condition.label: IC50 nM purified HLA DRB1 *0802, purified HLA DRB1*0802

- molecule: "CC(C)C[C@H](NC(=O)[C@H](Cc1c[nH]cn1)NC(=O)[C@@H](N)CS)C(=O)N[C@@H](Cc1ccccc1)C(=O)N[C@@H](Cc1ccc(O)cc1)C(=O)N[C@@H](CC(N)=O)C(=O)N[C@@H](CCC(=O)O)C(=O)N[C@@H](CCC(N)=O)C(=O)N[C@@H](CCC(N)=O)C(=O)N[C@@H](CCC(=O)O)C(=O)N[C@@H](C)C(=O)N[C@@H](CCCNC(=N)N)C(=O)NCC(=O)N[C@H](C(=O)N[C@@H](Cc1c[nH]cn1)C(=O)O)C(C)C [Peptide 9019.0023]"
  IC50: "> 20000 nM"

====

The compounds listed here are annotated with their IC50.
subject.of.test: purified HLA DRB1*1302 (Homo sapiens, UniProt P01903+P01911, A100E/A169T/K41T/L162R/M171V/P40S/Q125H/Q178H/Q39Y/Q99D/R42S/S66N/T262R/V115G/W38E/Y61H)
Construct: purified from EBV transformed homozygous cell lines or single MHC allele transfected 721.221, C1R, or fibroblast lines; made in house
test.description: HLA-DR radioligand binding inhibition assay, DRB1*1302
measurement.name: IC50 (nM)

- compound: "CSCC[C@H](NC(=O)[C@@H](NC(=O)[C@H](Cc1ccc(O)cc1)NC(=O)[C@H](C)N)C(C)C)C(=O)N[C@@H](C)C(=O)NCC(=O)N[C@H](C(=O)NCC(=O)N[C@@H](CO)C(=O)N1CCC[C@H]1C(=O)N[C@@H](Cc1ccc(O)cc1)C(=O)N[C@H](C(=O)N[C@@H](CO)C(=O)N[C@@H](CCCNC(=N)N)C(=O)N[C@@H](CC(C)C)C(=O)O)C(C)C)C(C)C [Peptide 9019.0077]"
  measurement.name: "IC50"
  reported.value: 402
- compound: "CC[C@H](C)[C@H](NC(=O)[C@H](CCCCN)NC(=O)[C@H](CCCNC(=N)N)NC(=O)[C@H](CCSC)NC(=O)[C@H](CO)NC(=O)[C@@H]1CCCN1C(=O)[C@H](CC(C)C)NC(=O)[C@@H](NC(=O)[C@H](CCC(=O)O)NC(=O)[C@H](CCCCN)NC(=O)[C@H](CCC(N)=O)NC(=O)[C@@H](NC(=O)[C@H](CS)NC(=O)[C@H](CCCCN)NC(=O)[C@@H](N)Cc1ccccc1)C(C)C)C(C)C)C(=O)O [Peptide 9019.0149]"
  measurement.name: "IC50"
  reported.value: 1590
- compound: "CC[C@H](C)[C@H](NC(=O)[C@@H](NC(=O)[C@H](CCC(=O)O)NC(=O)[C@H](CCCCN)NC(=O)[C@H](CCSC)NC(=O)[C@H](CCCCN)NC(=O)[C@H](CO)NC(=O)[C@H](C)N)[C@@H](C)O)C(=O)N1CCC[C@H]1C(=O)N[C@@H](CC(C)C)C(=O)N[C@H](C(=O)N[C@@H](C)C(=O)N[C@@H](CCC(=O)O)C(=O)N[C@@H](CCCCN)C(=O)N[C@@H](CC(C)C)C(=O)O)[C@@H](C)O [Peptide 9019.0158]"
  measurement.name: "IC50"
  reported.value: 550

====

# IC50 per record follows
subject.of.test: purified HLA DRB1*0401 (Homo sapiens, UniProt P01903+P01911, A100K/A169T/F76Y/I96L/K127E/L162R/M171V/N62H/P40V/Q125Y/R42H/S133A/S149N/S66Y/V115G/V209L/W38E)
Construct: purified from EBV transformed homozygous cell lines or single MHC allele transfected 721.221, C1R, or fibroblast lines; made in house
test.description: HLA-DR radioligand binding inhibition assay, DRB1*0401
condition.label: IC50 nM purified HLA DRB1 *0401, purified HLA DRB1*0401
measurement.name: IC50 (nM)

- compound: "CC[C@H](C)[C@H](NC(=O)[C@H](CC(C)C)NC(=O)[C@H](C)NC(=O)[C@H](CC(C)C)NC(=O)CN)C(=O)N[C@@H](Cc1c[nH]cn1)C(=O)N[C@@H](Cc1c[nH]cn1)C(=O)N[C@@H](CC(N)=O)C(=O)N[C@H](C(=O)N[C@@H](Cc1c[nH]cn1)C(=O)N[C@@H](CC(C)C)C(=O)N[C@@H](CS)C(=O)N[C@@H](Cc1ccccc1)C(=O)N[C@H](C(=O)N[C@@H](Cc1c[nH]cn1)C(=O)O)C(C)C)[C@@H](C)O [Peptide 9019.0058]"
  reported.value: 414
- compound: "CC(C)C[C@H](NC(=O)[C@H](C)NC(=O)[C@H](Cc1ccc(O)cc1)NC(=O)[C@H](CC(N)=O)NC(=O)[C@H](CC(=O)O)NC(=O)[C@H](CCC(=O)O)NC(=O)[C@H](Cc1ccccc1)NC(=O)[C@H](CC(C)C)NC(=O)[C@H](CCC(N)=O)NC(=O)[C@@H](NC(=O)CN)[C@@H](C)O)C(=O)N[C@@H](C)C(=O)N[C@H](C(=O)N[C@@H](CC(C)C)C(=O)N[C@@H](CC(=O)O)C(=O)O)C(C)C [Peptide 9019.0001]"
  reported.value: 640
- compound: "CC[C@H](C)[C@H](NC(=O)CNC(=O)[C@H](CC(C)C)NC(=O)CNC(=O)[C@H](CCC(N)=O)NC(=O)[C@H](CC(C)C)NC(=O)[C@@H](NC(=O)[C@H](CC(C)C)NC(=O)[C@@H](N)CO)[C@@H](C)O)C(=O)N[C@@H](CO)C(=O)N[C@@H](Cc1c[nH]c2ccccc12)C(=O)N[C@@H](CC(C)C)C(=O)NCC(=O)N[C@@H](CC(C)C)C(=O)N[C@@H](CCCNC(=N)N)C(=O)O [Peptide 9019.0055]"
  reported.value: 143
- compound: "CC(C)[C@H](NC(=O)[C@H](Cc1ccccc1)NC(=O)[C@H](Cc1c[nH]c2ccccc12)NC(=O)[C@H](CO)NC(=O)[C@H](Cc1ccc(O)cc1)NC(=O)[C@@H](N)CCC(N)=O)C(=O)N[C@@H](CC(N)=O)C(=O)NCC(=O)N[C@H](C(=O)N[C@@H](Cc1ccccc1)C(=O)N[C@@H](CCC(N)=O)C(=O)N[C@@H](CCC(N)=O)C(=O)N[C@@H](CO)C(=O)N[C@H](C(=O)N[C@@H](CCC(N)=O)C(=O)O)[C@@H](C)O)[C@@H](C)O [Peptide 9019.0122]"
  reported.value: 21
- compound: "CC[C@H](C)[C@H](NC(=O)[C@H](CC(C)C)NC(=O)[C@@H](NC(=O)CNC(=O)CNC(=O)[C@H](CCCCN)NC(=O)[C@H](CC(C)C)NC(=O)[C@@H](NC(=O)[C@H](CCC(=O)O)NC(=O)[C@@H](N)[C@@H](C)O)[C@@H](C)CC)C(C)C)C(=O)N[C@@H](CCC(N)=O)C(=O)N[C@@H](CCCNC(=N)N)C(=O)N[C@@H](CC(N)=O)C(=O)N1CCC[C@H]1C(=O)N[C@@H](CCC(N)=O)C(=O)O [Peptide 9019.0039]"
  reported.value: 40
- compound: "CC(C)C[C@H](NC(=O)[C@H](CC(N)=O)NC(=O)[C@H](C)NC(=O)CNC(=O)[C@H](CO)NC(=O)[C@H](CC(C)C)NC(=O)[C@H](Cc1ccc(O)cc1)NC(=O)[C@H](CO)NC(=O)[C@@H](N)CO)C(=O)N[C@@H](CC(N)=O)C(=O)N[C@@H](CC(C)C)C(=O)N[C@@H](CO)C(=O)N[C@@H](CS)C(=O)N[C@@H](Cc1c[nH]cn1)C(=O)N[C@@H](CO)C(=O)O [Peptide 9019.0137]"
  reported.value: 580
- compound: "CC[C@H](C)[C@H](NC(=O)CNC(=O)[C@H](CC(C)C)NC(=O)CN)C(=O)N[C@@H](CO)C(=O)N[C@@H](Cc1c[nH]c2ccccc12)C(=O)N[C@@H](CC(C)C)C(=O)NCC(=O)N[C@@H](CC(C)C)C(=O)N[C@@H](CCCNC(=N)N)C(=O)N[C@@H](CO)C(=O)N[C@@H](CC(C)C)C(=O)N[C@@H](CCCNC(=N)N)C(=O)N[C@@H](CCC(=O)O)C(=O)N[C@@H](CC(C)C)C(=O)O [Peptide 9019.0056]"
  reported.value: 41
- compound: "CC[C@H](C)[C@H](NC(=O)[C@H](CC(C)C)NC(=O)[C@H](Cc1c[nH]c2ccccc12)NC(=O)[C@H](CO)NC(=O)[C@@H](N)Cc1ccc(O)cc1)C(=O)N[C@@H](CC(=O)O)C(=O)NCC(=O)N[C@@H](CC(N)=O)C(=O)N[C@H](C(=O)N[C@@H](CCC(N)=O)C(=O)N[C@@H](CCC(N)=O)C(=O)N[C@@H](Cc1c[nH]cn1)C(=O)N[C@H](C(=O)N[C@@H](CCC(N)=O)C(=O)N[C@@H](CCC(=O)O)C(=O)O)[C@@H](C)O)[C@@H](C)CC [Peptide 9019.0129]"
  reported.value: 95
- compound: "CC[C@H](C)[C@H](NC(=O)[C@H](CCCNC(=N)N)NC(=O)[C@H](CC(C)C)NC(=O)[C@H](CCCNC(=N)N)NC(=O)[C@H](CCC(N)=O)NC(=O)[C@H](CC(C)C)NC(=O)[C@@H]1CCCN1C(=O)[C@@H](NC(=O)[C@H](CCC(N)=O)NC(=O)[C@H](CCCNC(=N)N)NC(=O)[C@@H](N)C(C)C)C(C)C)C(=O)N[C@H](C(=O)N[C@@H](CCCNC(=N)N)C(=O)NCC(=O)N[C@H](C(=O)O)[C@@H](C)O)C(C)C [Peptide 9019.0035]"
  reported.value: 1800
